Measured differential viability (reversal), listed per entry for reference.
Assay notes: reversal of MRP1-mediated doxorubicin resistance, pilot screen, H69AR cells, doxorubicin co-treatment (AID 601)
Details: H69AR cells + 2 uM doxorubicin, CellTiter-Glo, 72 h; at 10 µM; active compounds read high
Give the number; % is assumed, so skip it.

Please review the following examples before continuing.
Compound	Numeric value
COc1ccccc1NC(=O)CSc1nnc(-c2ccncc2)o1	2.67
C=CCn1c(SCC(=O)C(C)(C)C)nnc1-c1ccccn1	-0.455
Cc1cc(NC(=O)CSc2nnc(C3CC3)n2C)no1	0.235
COc1ccc(-c2nc(C)sc2CC(=O)O)cc1	2.46
COc1cccc(Cn2c(-c3nonc3N)nc3ccccc32)c1	-46.7
O=C(CCCOc1ccccc1)N1CCN(c2ccccn2)CC1	5.88
CN(C)c1ccc(O)c2c1CC1CC3[C@@H](N(C)C)C(=O)C(C(N)=O)=C(O)[C@]3(O)C(=O)C1=C2O (some centres undefined)	-6.56
CCOC(=O)CSc1nnc2n1C(C)(C)Cc1ccccc1-2	-5.61

Okay, now this compound:
Query string: Note down differential viability (reversal) recorded for N#CC1=C(N)N2C(=C(C#N)C13CCCCC3)SC1CCCCC12O (centres undefined)
Result string: 6.71

---

Assay notes: growth suppression of yeast trafficking mutant, preliminary HTS, modulators of trafficking downstream of Golgi apparatus project, 1536-format plate, OD 615 nm (AID 637)
Details: yeast transport mutant growth, absorbance 615 nm, 18 h; active compounds read high
Active and inactive are the calls of the source. Rule as the data show it: active = inhibition above about 30%; inactive = the rest.
Readout name: inhibition

Below, each entry is followed by its recorded inhibition result.
Molecule	Readout name	Result
CCN(CC)S(=O)(=O)c1ccc2[nH]cc(C(=O)NCCC3=CCCCC3)c(=O)c2c1	inhibition	-0.65% (inactive)
COC(=O)c1cc(=O)n2c(-c3ccc(OC)cc3)csc2n1	inhibition	-0.16% (inactive)
Cc1cc(Cn2ccnc2)c(C)cc1Cn1ccnc1	inhibition	-0.32% (inactive)

Query string: Write down inhibition measured for item CC(CN1c2ccccc2Sc2ccccc21)N(C)C (centres undefined)
Result string: -1.67% (inactive)

Query string: Tell me inhibition reported for COc1cccc(CC(NC(C)=O)C(=O)NC2CCN(c3c4c(nc5ncnn35)CCC4)CC2)c1 (centres undefined)
Result string: 3.17% (inactive)

Query string: Answer with reported inhibition of CN1C(=O)C(O)(CC(=O)c2ccc3c(c2)OCO3)c2ccccc21 (centres undefined)
Result string: -0.83% (inactive)

Query string: Assign inhibition to the following record: CCCC(=O)Nc1ccc(NC(=O)c2ccccc2OC)cn1
Result string: -4.43% (inactive)

Query string: For the molecule O=C(c1csc2ccccc12)n1cccn1 , report inhibition.
Result string: -1.29% (inactive)

Query string: Provide inhibition value for the following molecule: CC(C)OC(=O)CSc1nnc(-c2cccnc2)n1Cc1ccccc1
Result string: 0.18% (inactive)

Query string: For the molecule COc1ccc(N2CCN(CCNS(=O)(=O)c3cccc4nsnc34)CC2)cc1 , give its measured inhibition value.
Result string: 1.11% (inactive)

Query string: Report measured inhibition; entry is Cc1cccc(OCC(=O)Nc2cc(C)ccc2O)c1
Result string: 0.18% (inactive)

---

Assay notes: growth suppression of yeast trafficking mutant, preliminary HTS, modulators of trafficking downstream of Golgi apparatus project, 1536-format plate, OD 615 nm (AID 637)
Details: yeast transport mutant growth, absorbance 615 nm, 18 h; active compounds read high
Readout name: inhibition (%)
Express your answer in %, writing the number without its unit.

Query string: For CC(C)CC1NC(=O)N(CC(=O)N2CCN(S(=O)(=O)c3ccc(Cl)cc3)CC2)C1=O (centres undefined) , write its inhibition.
Result string: 5.83

Query string: Look up and state reported inhibition for CC(C)C(=O)N1CCN(c2nc(-c3ccccc3)c3c(c2C#N)CCCC3)CC1
Result string: 5.09

Query string: Provide only the value of recorded inhibition for O=C1c2ccccc2C(Nc2ccc3c(c2)OCCO3)N1Cc1ccco1 (centres undefined)
Result string: -1.5

Query string: Write down inhibition measured for item Cc1cccc(NC(=O)CN(C)S(=O)(=O)c2ccccc2)n1
Result string: 2.54

Query string: Tell me inhibition reported for O=C1CNCc2[nH]c3ccccc3c2N1c1ccccc1
Result string: 1.27

---

Assay notes: HUVEC growth inhibition – cell-based, human, primary screen (AID 575);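 also: 100% = median of untreated cell wells with 0.1% DMSO on each plate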
Details: HUVEC proliferation, CellTiter-Glo luminescence, 72 h; at 10 µM; active compounds read low
Define the label as true when viability is strictly less than 90% and as false in all remaining cases.

Completed entries (count: 3):
Molecule	Category
O=C(CSc1nnc(-c2ccccn2)n1Cc1ccccc1)N1CCCC1	false
CCc1cc2c(=O)c(-c3cscn3)coc2cc1O	true
O=C(Nc1ccc(NC(=O)C2CC2)cn1)c1ccccc1Cl	false

Query string: State whether 90% exceeds viability recorded for CCCc1cc(=O)[nH]c(/N=C(\N)Nc2ccccc2)n1 .
Result string: true

Query string: Problem: For the molecule CS(=O)(=O)N1CCN(C(=O)c2ccc(-c3ccccc3)cc2)CC1 , is viability under 90%?
Result string: false

Query string: For this molecule, is viability lower than 90%? CC(=O)Nc1nc2c(c3c1c(=O)oc1ccccc13)CC(C)CC2 (configuration not stated)
Result string: true

---

Assay notes: HUVEC growth inhibition – cell-based, human, primary screen (AID 575);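 also: 100% = median of untreated cell wells with 0.1% DMSO on each plate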
Details: HUVEC proliferation, CellTiter-Glo luminescence, 72 h; at 10 µM; active compounds read low
Active and inactive are the calls of the source.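 Rule for the calls: active = viability at or below 30% in both replicate assays; inconclusive = viability at or below 30% in just one of the two assays; inactive = the rest.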
Readout name: viability

Reference set (3 entries):
Molecule	viability
CSc1nnc(-c2cnccn2)n1C	107% (inactive)
O=C(O)CC1Sc2nc3ccccc3n2C1=O (stereo not given)	111% (inactive)
CN(CCCC(=O)Nc1ccncc1)S(=O)(=O)c1ccc(Cl)cc1	56.2% (inactive)

Query string: Provide one value: measured viability of CCCNC(=O)c1c(N)n(-c2cc(OC)cc(OC)c2)c2nc3ccccc3nc12
Result string: 38.6% (inactive)

Query string: Check the records and state viability for Cc1ccc(Nc2nnns2)cc1C
Result string: 84.6% (inactive)

---

Assay notes: 384-well plate pilot, post-Golgi transport modulator project, inhibition of yeast transport mutant growth (AID 636)
Details: absorbance 615 nm, about 18 h, active compounds read high
Entries and their inhibition values follow.
Respond numerically; units are % and should not be typed.

Check out these entries, answers already filled in.
Compound	inhibition (%)
COc1ccc(N(CC(=O)Nc2ccccc2SC)S(C)(=O)=O)cc1OC	-2.63
O=C(NC1CC2CCC1C2)C1COc2ccccc2O1 (stereo not given)	-3.55
CCn1c(Cc2ccccc2)nnc1SCC(=O)Nc1cc(C)on1	-5.06

Query string: Read the entry O=C(Cc1nn[nH]n1)NCCC1=CCCCC1 and write its reported inhibition.
Result string: -1.04

Query string: Tell me its inhibition given Cc1cc(C)n(C(C)n2nc(C)cc2C)n1 as the entry.
Result string: -7.87

---

Assay notes: 384-well plate pilot, post-Golgi transport modulator project, inhibition of yeast transport mutant growth (AID 636)
Details: absorbance 615 nm, about 18 h, active compounds read high
Readout name: inhibition (%)
Value expressed in %; do not type the unit.

Compound	Readout name	Numeric value
CCOC(=O)CSc1nnc(CNC(=O)c2cccs2)n1-c1cc(OC)ccc1OC	inhibition	-6.32
Cc1nc2cc(N3CCCCC3)c(NC(=O)c3cccnc3)cc2c(=O)n1Cc1ccccc1	inhibition	2.11
COc1ccccc1CC(=O)NCc1ccc2c(c1)OCO2	inhibition	-7.2

Query string: Name the recorded inhibition of the compound listed here: Cn1c(=O)c2c(nc(NCc3ccco3)n2C/C=C/c2ccccc2)n(C)c1=O
Result string: -1.69

Query string: Provide inhibition value for the following compound: Cc1ccc(C2=Nc3ccccc3NC(C)(c3ccc(C)o3)C2)o1 (stereo unspecified)
Result string: 3.97

Query string: Please report the measured inhibition for Cc1c2cnn(CC(=O)N3CCN(c4ncccn4)CC3)c(=O)c2c(C)n1Cc1ccc(F)cc1
Result string: 5.14

Query string: Specify inhibition for COC(=O)c1[nH]c2ccc(C)cc2c1NC(=O)CN1CCCc2ccccc21 and stop.
Result string: -5.73

Query string: Tell me inhibition reported for O=C1c2ccccc2NC(c2ccco2)N1O (stereo unspecified)
Result string: -3.38

---

Measured inhibition accompanies every entry in the list below.
Assay notes: 384-well plate pilot, post-Golgi transport modulator project, inhibition of yeast transport mutant growth (AID 636)
Details: absorbance 615 nm, about 18 h, active compounds read high
Reply numerically in %, unit not repeated.

Field: example entries. Status: answers known.
Molecule	Readout name	Unit abbrev	Numeric value
O=C(COC(=O)c1cnccn1)c1ccc(OC(=O)c2ccccc2)cc1	inhibition	%	-1.67
COc1ccc(NC(=O)c2oc3ccccc3c2NC(=O)c2ccco2)cc1	inhibition	%	-4.59
NC(=O)c1oc2ccc(Cl)cc2c1NC(=O)CN1CCOCC1	inhibition	%	-5.26
Cc1ccc(S(=O)(=O)N2CCN(S(=O)(=O)N(C)C)CC2)cc1	inhibition	%	-3.15
C/C(=C\C(=O)c1ccc(F)cc1)Nc1ccc(N2CCOCC2)cc1	inhibition	%	-4.4

Query string: Indicate its recorded inhibition; the molecule in question is C1CCN=C(Nc2nc3c(s2)CCCC3)CC1
Result string: -5.6

Query string: Consider the molecule CSc1nnc(-c2cnccn2)n1Cc1ccccc1 and give its recorded inhibition.
Result string: -2.88

Query string: Please look at this molecule and report its inhibition: CCN1CCN(Cc2ccccc2NC(=O)Nc2ccc(C)cc2)CC1
Result string: -5.92

Query string: # return recorded inhibition for entry COc1ccc(N(CC(=O)N2CCCCC2)S(=O)(=O)c2ccccc2)c(OC)c1
Result string: -1.03

Query string: Identify measured inhibition associated with COc1ccc2c(c1)c(CC(=O)OCC(=O)O)c(C)n2C(=O)c1ccc(Cl)cc1
Result string: -5.06

Query string: Supply reported inhibition belonging to this molecule: Cc1ccc2c(c1)c1c(n2CC(O)Cn2c(C)nc3ccccc32)/C(=N\O)CCC1 (centres undefined)
Result string: -4.27

Query string: Answer with the recorded inhibition of O=C(NCC(F)(F)F)Nc1cccnc1 only.
Result string: -4.19

Query string: Answer with reported inhibition of CC1Oc2ccccc2N(CC(=O)NCc2cccs2)C1=O (centres undefined)
Result string: -6.71

Query string: Give inhibition for Cc1ccccc1-n1c(SCc2c(C)noc2C)nnc1-c1ccncc1
Result string: -3.78

Query string: Identify inhibition associated with the molecule COc1ccc(CCNc2oc(-c3ccco3)nc2C#N)cc1
Result string: -3.07

Query string: Please indicate inhibition recorded for COCCCC/C(=N\OCCN)c1ccc(C(F)(F)F)cc1
Result string: -0.91

Query string: Let me know recorded inhibition for COc1ccc(S(=O)(=O)NC(CC(=O)NCc2ccco2)c2ccco2)cc1 (centres undefined) , thanks.
Result string: -2.08

Query string: Look up inhibition of Cc1cc(C(=O)Nc2sc3c(c2C#N)CCCCC3)cs1 and report it.
Result string: -3.47

Query string: Provide only the value of recorded inhibition for CCOC(=O)c1cc2sc(C)cc2n1CC(=O)Nc1cccc(C)c1C
Result string: -5.81

Query string: Return inhibition (reported value) for this molecule: O=C(Nc1nc2ccc(S(=O)(=O)N3CCCC3)cc2s1)C1CCCO1 (centres undefined)
Result string: -2.76

Query string: Return inhibition (reported value) for this molecule: O=C(Nc1cnn(Cc2ccc(F)cc2)c1)c1cnccn1
Result string: -2.34

Query string: Hello, please tell me recorded inhibition for this one: C=CCn1c(SCC(=O)NCC2CCCO2)nc2scc(-c3ccco3)c2c1=O (centres undefined)
Result string: -3.84

Query string: Please supply the value of reported inhibition for the item COc1cccc(Nc2c(F)c(F)c(F)c(F)c2C(=O)O)c1
Result string: -5.84

Query string: Assign inhibition to the following record: COc1ccc(N2CCN(c3oc(COc4ccccc4)nc3C#N)CC2)cc1
Result string: -5.19

Query string: Please list inhibition recorded for the molecule COc1ccc(CCN(C)CCCC(C#N)(c2ccc(OC)c(OC)c2)C(C)C)cc1OC (centres undefined)
Result string: -2.34
